Where these numbers come from: ChEMBL document CHEMBL1138838

Consider the following compounds and their measured Emax readings.
- assay-protocol: Maximum efficacy for [35S]GTP-gamma-S, binding to Opioid receptor mu 1
- Type: functional
experimental-readout: Emax

CN1CC[C@]23c4c5ccc(O)c4O[C@H]2[C@@H](O)C=C[C@H]3[C@H]1C5 : 93
CC(=O)OC1C(CO)OC(SC2C=C[C@H]3[C@H]4Cc5ccc(O)c6c5[C@@]3(CCN4C)[C@H]2O6)C(OC(C)=O)C1OC(C)=O (stereo partly specified) : 64.5
CN1CC[C@]23c4c5ccc(O)c4O[C@H]2[C@@H](O[C@@H]2O[C@H](C(=O)O)[C@@H](O)[C@H](O)[C@H]2O)C=C[C@H]3[C@H]1C5 [MORPHINE GLUCURONIDE] : 45
CC(=O)OCC1OC(SC2C=C[C@H]3[C@H]4Cc5ccc(OC(C)=O)c6c5[C@@]3(CCN4C)[C@H]2O6)C(OC(C)=O)C(OC(C)=O)C1OC(C)=O (stereo partly specified) : 44.1
COC(=O)C1OC(SC2C=C[C@H]3[C@H]4Cc5ccc(O)c6c5[C@@]3(CCN4C)[C@H]2O6)C(OC(C)=O)C(OC(C)=O)C1OC(C)=O (stereo partly specified) : 88.3
COC(=O)C1OC(SC2C=C[C@H]3[C@H]4Cc5ccc(OC(C)=O)c6c5[C@@]3(CCN4C)[C@H]2O6)C(OC(C)=O)C(OC(C)=O)C1OC(C)=O (stereo partly specified) : 37.8

###

- assay-protocol: Inhibition of [3H]DPDPE binding to Opioid receptor delta 1
experimental-readout: log10 Ki (log10 of the value in µM)

COC(=O)C1OC(SC2C=C[C@H]3[C@H]4Cc5ccc(OC(C)=O)c6c5[C@@]3(CCN4C)[C@H]2O6)C(OC(C)=O)C(OC(C)=O)C1OC(C)=O (some centres undefined) : 2.72
CC(=O)OCC1OC(SC2C=C[C@H]3[C@H]4Cc5ccc(O)c6c5[C@@]3(CCN4C)[C@H]2O6)C(OC(C)=O)C(OC(C)=O)C1OC(C)=O (stereo in doubt; 5e) : 1.29
CC(=O)OCC1OC(SC2C=C[C@H]3[C@H]4Cc5ccc(OC(C)=O)c6c5[C@@]3(CCN4C)[C@H]2O6)C(OC(C)=O)C(OC(C)=O)C1OC(C)=O (some centres undefined) : 2.88
CN1CC[C@]23c4c5ccc(O)c4O[C@H]2[C@@H](O[C@@H]2O[C@H](C(=O)O)[C@@H](O)[C@H](O)[C@H]2O)C=C[C@H]3[C@H]1C5 [MORPHINE GLUCURONIDE] : 2.23
COc1ccc2c3c1O[C@H]1C(SC4OC(C(=O)O)C(OC(C)=O)C(OC(C)=O)C4OC(C)=O)C=C[C@H]4[C@@H](C2)N(C)CC[C@]314 (some centres undefined) : 3.43
CC(=O)OC1C(CO)OC(SC2C=C[C@H]3[C@H]4Cc5ccc(O)c6c5[C@@]3(CCN4C)[C@H]2O6)C(OC(C)=O)C1OC(C)=O (some centres undefined) : 1.75
COC(=O)C1OC(SC2C=C[C@H]3[C@H]4Cc5ccc(O)c6c5[C@@]3(CCN4C)[C@H]2O6)C(OC(C)=O)C(OC(C)=O)C1OC(C)=O (some centres undefined) : 1.19
CC(=O)OC1C(SC2C=C[C@H]3[C@H]4Cc5ccc(O)c6c5[C@@]3(CCN4C)[C@H]2O6)OC(C(=O)O)C(OC(C)=O)C1OC(C)=O (some centres undefined) : 1.50
COC(=O)C1OC(SC2C=C[C@H]3[C@H]4Cc5ccc(OC)c6c5[C@@]3(CCN4C)[C@H]2O6)C(OC(C)=O)C(OC(C)=O)C1OC(C)=O (some centres undefined) : 2.64
